- TEST SYSTEM: PI3K-α (PIK3CA) H1047R mutant, p110α/p85α complex (Homo sapiens, UniProt P42336, H1047R)
- Construct: Recombinant, catalytically active human full length PIK3KA Wild-type and H1047R mutant; 6×His (N); purchased EMD Millipore Sigma 14-792M
- Sequence (P42336 whole entry H1047R): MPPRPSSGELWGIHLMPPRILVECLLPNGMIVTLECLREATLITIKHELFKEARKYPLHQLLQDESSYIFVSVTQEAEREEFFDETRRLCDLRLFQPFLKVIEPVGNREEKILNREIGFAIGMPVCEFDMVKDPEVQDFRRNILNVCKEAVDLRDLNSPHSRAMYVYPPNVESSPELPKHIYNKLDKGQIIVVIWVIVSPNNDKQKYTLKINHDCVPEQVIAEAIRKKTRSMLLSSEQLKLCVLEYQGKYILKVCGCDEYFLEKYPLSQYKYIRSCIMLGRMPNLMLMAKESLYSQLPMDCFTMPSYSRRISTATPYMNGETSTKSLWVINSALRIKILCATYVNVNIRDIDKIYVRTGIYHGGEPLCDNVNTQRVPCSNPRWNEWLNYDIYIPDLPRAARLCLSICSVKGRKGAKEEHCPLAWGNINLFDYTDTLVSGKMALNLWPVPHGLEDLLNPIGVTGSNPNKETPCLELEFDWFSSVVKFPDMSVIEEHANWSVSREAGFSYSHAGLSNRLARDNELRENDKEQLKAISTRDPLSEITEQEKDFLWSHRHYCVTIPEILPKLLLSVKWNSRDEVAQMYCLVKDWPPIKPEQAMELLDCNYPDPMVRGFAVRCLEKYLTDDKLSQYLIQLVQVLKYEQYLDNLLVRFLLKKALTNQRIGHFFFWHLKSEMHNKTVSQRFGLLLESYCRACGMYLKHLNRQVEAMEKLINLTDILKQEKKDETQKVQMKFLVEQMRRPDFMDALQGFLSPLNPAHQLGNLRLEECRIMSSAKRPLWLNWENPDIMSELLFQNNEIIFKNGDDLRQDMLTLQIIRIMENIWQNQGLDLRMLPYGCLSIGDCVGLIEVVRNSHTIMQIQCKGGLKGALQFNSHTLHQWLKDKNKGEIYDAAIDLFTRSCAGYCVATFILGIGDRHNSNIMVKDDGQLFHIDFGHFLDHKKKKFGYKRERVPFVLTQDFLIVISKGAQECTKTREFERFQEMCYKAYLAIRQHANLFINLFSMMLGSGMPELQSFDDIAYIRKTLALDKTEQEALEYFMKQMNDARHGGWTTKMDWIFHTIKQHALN
- Sequence (P27986 whole entry partner): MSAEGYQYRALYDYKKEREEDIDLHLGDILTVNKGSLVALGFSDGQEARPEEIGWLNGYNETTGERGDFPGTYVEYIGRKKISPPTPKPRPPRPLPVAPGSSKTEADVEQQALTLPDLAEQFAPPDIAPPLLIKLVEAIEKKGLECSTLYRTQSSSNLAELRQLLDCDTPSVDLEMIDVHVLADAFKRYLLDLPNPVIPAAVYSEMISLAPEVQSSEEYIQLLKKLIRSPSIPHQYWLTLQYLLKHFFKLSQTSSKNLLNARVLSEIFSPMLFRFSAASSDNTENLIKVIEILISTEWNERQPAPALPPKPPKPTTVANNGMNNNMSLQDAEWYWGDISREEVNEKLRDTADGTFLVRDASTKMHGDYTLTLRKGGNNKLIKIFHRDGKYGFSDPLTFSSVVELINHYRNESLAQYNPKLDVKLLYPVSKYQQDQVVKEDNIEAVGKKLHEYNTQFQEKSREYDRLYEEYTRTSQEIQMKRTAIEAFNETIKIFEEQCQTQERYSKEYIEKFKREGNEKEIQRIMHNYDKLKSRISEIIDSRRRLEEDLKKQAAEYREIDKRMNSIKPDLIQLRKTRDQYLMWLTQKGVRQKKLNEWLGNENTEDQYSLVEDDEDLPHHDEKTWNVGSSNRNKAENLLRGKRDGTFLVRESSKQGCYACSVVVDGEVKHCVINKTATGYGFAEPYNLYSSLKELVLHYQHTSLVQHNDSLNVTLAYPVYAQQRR
- TEST DESCRIPTION: PI3K-alpha kinase (PIK3CA) biochemical activity, ADP-Glo, H1047R mutant
- REPORTED CONDITIONS: Soy PI lipid substrate
Give IC50 for every item shown.

Request the reported IC50 associated with Cc1cc(C(C)Nc2ccccc2C(=O)O)c2oc(-c3ccc4c(cnn4C)n3)cc(=O)c2c1 (single isomer, unassigned) [Example 53] < 500 nM

Repeat with Cc1cc(C(C)Nc2ccc(Cl)nc2C(=O)O)c2oc(-c3ccc4cnn(C)c4c3)cc(=O)c2c1 (single isomer, unassigned) [Example 220] < 500 nM

Lookup Cc1cc(C(C)Nc2ccccc2C(=O)O)c2oc(-c3cnn4cccnc34)cc(=O)c2c1 (stereo not drawn) [Example 6] < 500 nM

Would you kindly repeat that for Cc1cc(C(C)Nc2ccccc2C(=O)O)c2oc(-c3ccc4cncn4c3)cc(=O)c2c1 (single isomer, unassigned) ? < 500 nM

Ok, now Cc1cc(-c2cc(=O)c3cc(C(F)(F)F)cc(C(C)Nc4ccc(Cl)nc4C(=O)O)c3o2)cc2cn(C)nc12 (single isomer, unassigned) [Example 192] 500 to 1000 nM

Another molecule: Cc1cc(C(C)Nc2ccccc2C(=O)O)c2oc(-c3ccc4oc(C)nc4c3)cc(=O)c2c1 (single isomer, unassigned) < 500 nM
